B1: r4_43_TrROS_Hall (parent)
chain: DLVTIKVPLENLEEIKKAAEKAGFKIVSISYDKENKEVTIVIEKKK

# Variants of: B1
# assay.notes: folding stability dG (cDNA display proteolysis); higher = more stable
# assay.conditions: PBS, room temperature
Items are presented alongside their recorded folding stability dG.
assay.readout: folding stability dG (kcal/mol)

| residues | output.unit | reported.value |
| --- | --- | --- |
| DLVTIKVPTENLEEIKKAAEKAGFKIVSISYDKENKEVTIVIEKKK | kcal/mol | 3.46 |
| DLVTIKVPLENLEEIKKAAEKAGFKIVSISYDKFNKEVTIVIEKKK | kcal/mol | 3.67 |
| DLVTIKVPLENLEEIKKGAEKAGFKIVSISYDKENKEVTIVIEKKK | kcal/mol | 3.34 |
| DLVTIKVPLENLEEIKKVAEKAGFKIVSISYDKENKEVTIVIEKKK | kcal/mol | 3.73 |
| DLVTIKVPLENLEEIKKAAEKAGFKIVSISYDKENKESTIVIEKKK | kcal/mol | 3.12 |
| DLVTIKVPLENLEEIKKAAEKAGFKIVSISYDKENKEVTIVEEKKK | kcal/mol | 1.39 |
| DLVTICVPLENLEEIKKAAEKAGFKIVSISYDKENKEVTIVIEKKK | kcal/mol | 3.32 |
| DLVTIKVPLENLEEIKKAAEKAGFKIVSISYDKENKEVTIVIEKKH | kcal/mol | 4.17 |
| DLVTIKVPLENLEEIKKAAEKAGFKIVSISYDKENKEWTIVIEKKK | kcal/mol | 4.33 |
| DLVTIKVPLINLEEIKKAAEKAGFKIVSISYDKENKEVTIVIEKKK | kcal/mol | 3.86 |
| DLVTIKVPLENLEEIKKAAEKAGFKIVSISYDKENKEVTIVICKKK | kcal/mol | 4.02 |
| DLSTIKVPLENLEEIKKAAEKAGFKIVSISYDKENKEVTIVIEKKK | kcal/mol | 3.62 |
| DLVTIKVPLENLEEIKKAAEKAGFKIVSISYRKENKEVTIVIEKKK | kcal/mol | 2.93 |
| DLVTIKVPLENLEEIKKAAEKAGFKIVSISYDKENKEVTMVIEKKK | kcal/mol | 3.77 |
| DLVTIKVPLENLEEIWKAAEKAGFKIVSISYDKENKEVTIVIEKKK | kcal/mol | 3.8 |
| DLVTIKVPLENLEEIKKAAEKAGFKIVSISYDKEWKEVTIVIEKKK | kcal/mol | 3.75 |
| DLVTIKVPLENLEEIKKAAEKAGFKIVSISKDKENKEVTIVIEKKK | kcal/mol | 3.34 |
| DLVTIKVPLENLEEIKKAAEKAGFKIVSISYDKENKEVTIQIEKKK | kcal/mol | 3.5 |
| DLVTIKTPLENLEEIKKAAEKAGFKIVSISYDKENKEVTIVIEKKK | kcal/mol | 3.57 |
| DLVTIKVPLENLEEIKIAAEKAGFKIVSISYDKENKEVTIVIEKKK | kcal/mol | 3.8 |
| DLVTIKVPLENTEEIKKAAEKAGFKIVSISYDKENKEVTIVIEKKK | kcal/mol | 3.23 |
| DLVTIKVPLENLEEIKKAAEKAGFWIVSISYDKENKEVTIVIEKKK | kcal/mol | 3.57 |
| DLVTIKVPLENLEEIKKAIEKAGFKIVSISYDKENKEVTIVIEKKK | kcal/mol | 3.61 |
| DLVTIKVPLENLEEIKKAAEKAGFKIVSISYDKENKEVTIVIEYKK | kcal/mol | 4.68 |
| DLVTIKVPLENLEEIKKAAEKAGFKIVSISYDKENKEVTIVIEMKK | kcal/mol | 3.96 |
| DHVTIKVPLENLEEIKKAAEKAGFKIVSISYDKENKEVTIVIEKKK | kcal/mol | 3.43 |
| DLVTIKVPLENLEEIKKAAEKAGFKIVSISYDKENKEVTIAIEKKK | kcal/mol | 3.49 |
| DLVTIKVVLENLEEIKKAAEKAGFKIVSISYDKENKEVTIVIEKKK | kcal/mol | 3.72 |
| DLVTIKVPLENLEEHKKAAEKAGFKIVSISYDKENKEVTIVIEKKK | kcal/mol | 3.73 |
| DLVTIKVPLENLEEIKKAAEKAGFKIVSISYDKENAEVTIVIEKKK | kcal/mol | 3.57 |
| DLVTINVPLENLEEIKKAAEKAGFKIVSISYDKENKEVTIVIEKKK | kcal/mol | 3.37 |
| DLVTIKVPLENLEEIKKAAEKAGFKIVSISYDKENKVVTIVIEKKK | kcal/mol | 4.14 |
| DLVTIKVPLENLEEIKKAAEKAGFKIVSISYDKENKEVTINIEKKK | kcal/mol | 3.34 |
| DMVTIKVPLENLEEIKKAAEKAGFKIVSISYDKENKEVTIVIEKKK | kcal/mol | 3.66 |
| DLVTIKVPLENLEEIKKAAEYAGFKIVSISYDKENKEVTIVIEKKK | kcal/mol | 4.25 |
| DLVTILVPLENLEEIKKAAEKAGFKIVSISYDKENKEVTIVIEKKK | kcal/mol | 3.31 |
| DLVTIKVPLENLEEIKKAAEKANFKIVSISYDKENKEVTIVIEKKK | kcal/mol | 3.44 |
| DLVTIKVPLENLEEIKKAAEKAGFKIVSISYDKENKEVTIWIEKKK | kcal/mol | 4.13 |
| DLVTIKVPLENLEEIKKAAEKAGFKIGSISYDKENKEVTIVIEKKK | kcal/mol | 2.59 |
| DLVTIKVPLENLEEIKKAAEKFGFKIVSISYDKENKEVTIVIEKKK | kcal/mol | 3.67 |
| DLVTIKVPLDNLEEIKKAAEKAGFKIVSISYDKENKEVTIVIEKKK | kcal/mol | 3.29 |
| DLVKIKVPLENLEEIKKAAEKAGFKIVSISYDKENKEVTIVIEKKK | kcal/mol | 3.56 |
| DLVTIKVPLENLEEIKKAAEKAGFKIVSISYDKENKEVTIVIESKK | kcal/mol | 3.49 |
| DLVTIKVPLENLEEIKKAAEKAGFKIVSISYDKENKQVTIVIEKKK | kcal/mol | 3.59 |
| DLVTIKVPLENLEEIKKAAEKAGFKIVSISYDLENKEVTIVIEKKK | kcal/mol | 3.8 |
| DLVTIKVPLENLEEIKKAAEKAGFPIVSISYDKENKEVTIVIEKKK | kcal/mol | 2.05 |
| DLVTIKVPLENLEEIKKAAEKAGFKIVSGSYDKENKEVTIVIEKKK | kcal/mol | 1.61 |
| DLVTIKVPLENLEEIKKAAEKAGFKIVEISYDKENKEVTIVIEKKK | kcal/mol | 3.18 |
| DLVTIKVPLENLEEIKKAAEKAGFKIVSDSYDKENKEVTIVIEKKK | kcal/mol | 1.72 |
| DLVTIKVPLENLEEKKKAAEKAGFKIVSISYDKENKEVTIVIEKKK | kcal/mol | 3.37 |
| DLVTIKVHLENLEEIKKAAEKAGFKIVSISYDKENKEVTIVIEKKK | kcal/mol | 4.12 |
| DLVTIKVPLENLEEIKKAAEKAGFKIVSESYDKENKEVTIVIEKKK | kcal/mol | 3.18 |
| DLVTIKVPLENLEEIKKAAEKCGFKIVSISYDKENKEVTIVIEKKK | kcal/mol | 3.79 |
| DLVTIKVPLENLEEIKKAAEKPGFKIVSISYDKENKEVTIVIEKKK | kcal/mol | 2.38 |
| DLVTIKVPLENLEEIYKAAEKAGFKIVSISYDKENKEVTIVIEKKK | kcal/mol | 4.02 |
| DLVTIKVPLENLEEISKAAEKAGFKIVSISYDKENKEVTIVIEKKK | kcal/mol | 3.58 |
| PLVTIKVPLENLEEIKKAAEKAGFKIVSISYDKENKEVTIVIEKKK | kcal/mol | 3.56 |
| DLVTPKVPLENLEEIKKAAEKAGFKIVSISYDKENKEVTIVIEKKK | kcal/mol | 1.48 |
| DLVTIKVPLENLEEIKKAAEKAGFGIVSISYDKENKEVTIVIEKKK | kcal/mol | 2.89 |
| DLVTIKVPLENLEEIKKAAEKAGFKIVSISYDKENKEVTIVIKKKK | kcal/mol | 3.36 |
| DLVTIKFPLENLEEIKKAAEKAGFKIVSISYDKENKEVTIVIEKKK | kcal/mol | 3.46 |
| DLVTIKVPLENLEEIKKAAEKTGFKIVSISYDKENKEVTIVIEKKK | kcal/mol | 3.33 |
| DLVTIKVPLENLEEIKTAAEKAGFKIVSISYDKENKEVTIVIEKKK | kcal/mol | 3.65 |
| DLVTIKVPLENLEEIKKAAEKAGFKIVSISYDKENKEMTIVIEKKK | kcal/mol | 3.43 |
| DLVTIKVPLENLEEIKKAAEKAFFKIVSISYDKENKEVTIVIEKKK | kcal/mol | 3.61 |
| DLVTIKVPLENLEEIKKAAEKAGFKIVSIQYDKENKEVTIVIEKKK | kcal/mol | 3.47 |
| DLVTIKVPLENLEEIKKAFEKAGFKIVSISYDKENKEVTIVIEKKK | kcal/mol | 3.52 |
| DLVTIKVPLENLEEIKKAAEKAGFKIVSISYDKENKLVTIVIEKKK | kcal/mol | 3.62 |
| DLVTIKVPLEVLEEIKKAAEKAGFKIVSISYDKENKEVTIVIEKKK | kcal/mol | 3.87 |
| DLVTIKVPLENLEEIKKAAEKADFKIVSISYDKENKEVTIVIEKKK | kcal/mol | 2.75 |
| DLVTIKVPLENLEEIKKAAEKAGFKIVSISRDKENKEVTIVIEKKK | kcal/mol | 3.39 |
| DLVTIKVPLENLEEIKKAAEKAGFKIVSISYDKENKEVGIVIEKKK | kcal/mol | 2.85 |
| DLVTIKAPLENLEEIKKAAEKAGFKIVSISYDKENKEVTIVIEKKK | kcal/mol | 3.81 |
| DLVTIKVPAENLEEIKKAAEKAGFKIVSISYDKENKEVTIVIEKKK | kcal/mol | 3.66 |
| DLVTIKVPLENLEEIKKAAEKAGFKIVSISYDKENKEVFIVIEKKK | kcal/mol | 3.69 |
| DLVTIKVPVENLEEIKKAAEKAGFKIVSISYDKENKEVTIVIEKKK | kcal/mol | 3.6 |
| DLVTIKVPLENLEEIKKAAYKAGFKIVSISYDKENKEVTIVIEKKK | kcal/mol | 3.92 |
| DLVTIKVPLENLEEIKKAAEKAGFKRVSISYDKENKEVTIVIEKKK | kcal/mol | 1.21 |
| DLVTIKVPLENLEEIKKAAEKAGFKIVSISYDKENKSVTIVIEKKK | kcal/mol | 3.81 |
| DLVTIKVPLENLEEIKKAAEKAGFKIVCISYDKENKEVTIVIEKKK | kcal/mol | 3.69 |
| DLVTIKVPLENLEEIKKAAEKAGFKIVSISYDKTNKEVTIVIEKKK | kcal/mol | 3.77 |
| DLVTIKVPLENLEEIKKAAEKAGFKIVSISYDFENKEVTIVIEKKK | kcal/mol | 3.61 |
| DLKTIKVPLENLEEIKKAAEKAGFKIVSISYDKENKEVTIVIEKKK | kcal/mol | 3.45 |
| DLVTIKVPLENLEEIKKAAEKAGLKIVSISYDKENKEVTIVIEKKK | kcal/mol | 2.8 |
| DLVTIKVPLENLEEIKKAAEKAGFKIVRISYDKENKEVTIVIEKKK | kcal/mol | 3.88 |
| DLVTIKKPLENLEEIKKAAEKAGFKIVSISYDKENKEVTIVIEKKK | kcal/mol | 3.01 |
| DLVTIKVPLENLEEIKKAAEKAGFKIVSISYDKENKEVTIDIEKKK | kcal/mol | 2.77 |
| DLVTIKVPLENLKEIKKAAEKAGFKIVSISYDKENKEVTIVIEKKK | kcal/mol | 3.62 |

// provenance: the MegaScale stability set (Tsuboyama et al. 2023)
